- Tested on: CCRIS mutagenicity, Ames/micronucleus/aberration tests
- test-summary: CCRIS mutagenicity studies
- details: Test System: AMES SALMONELLA TYPHIMURIUM; Strain/Indicator: TA98; Metabolic Activation: NONE
Active and inactive are the calls of the source. No rule for the calls is given here.
Respond only with the outcome that fits, drawn from active, inactive

Task: I'd appreciate the recorded outcome for `O=C1CCCc2ccc3c([N+](=O)[O-])c4ccccc4cc3c21` from this test.
Result: inactive

Task: I'd appreciate the recorded outcome for `Cc1cccc(Nc2cc(Cl)nc(SCC(=O)O)n2)c1C` from this test.
Result: inactive

Task: I'd appreciate the recorded outcome for `O=[N+]([O-])c1ccc2ccc3c4ccccc4c([N+](=O)[O-])c4ccc1c2c43` from this test.
Result: active

Task: I'd appreciate the recorded outcome for CC(C)NCC(O)c1ccc(NS(C)(=O)=O)cc1 (configuration not stated) from this test.
Result: inactive

Task: I'd appreciate the recorded outcome for COc1cccc2c1C(=O)c1c(O)c3c(c(O)c1C2=O)CC(O)(C(C)=O)CC3OC1CC(N2CCOCC2C#N)C(O)C(C)O1 (configuration not stated) from this test.
Result: inactive

Task: I'd appreciate the recorded outcome for `Cc1c(C(=O)O)c(O)cc2c1C(=O)c1c(O)c([C@@H]3O[C@H](CO)[C@@H](O)[C@H](O)[C@H]3O)c(O)c(O)c1C2=O` from this test.
Result: inactive

Task: I'd appreciate the recorded outcome for `O=C1CN(/N=C/c2ccc([N+](=O)[O-])o2)C(=O)N1` from this test.
Result: inactive

---

- Tested on: CCRIS mutagenicity, Ames/micronucleus/aberration tests
- test-summary: CCRIS mutagenicity studies
- details: Test System: AMES SALMONELLA TYPHIMURIUM; Strain/Indicator: TA1537; Metabolic Activation: NONE; Method: STANDARD PLATE
Calls of active or inactive are those of the source. The rule behind the calls is not given here.
Respond only with the outcome that fits, drawn from Yes for active, No for inactive

Task: I'd appreciate the recorded outcome for `C=CC(=O)OCCCCCCOC(=O)C=C` from this test.
Result: No

Task: I'd appreciate the recorded outcome for `O=c1[nH]cnc2c1ncn2[C@H]1CC[C@@H](CO)O1` from this test.
Result: No

Task: I'd appreciate the recorded outcome for `COc1ccc(N)cc1` from this test.
Result: No

Task: I'd appreciate the recorded outcome for `CC(C)(C)S(=O)(=O)C[C@@H](Cc1ccccc1)C(=O)N[C@@H](Cc1cnc[nH]1)C(=O)N[C@@H](CC1CCCCC1)[C@@H](O)[C@@H](O)C1CC1` from this test.
Result: No

Task: I'd appreciate the recorded outcome for `C1CCC(C2(C3CCCCC3)COCCOCCOCCOCCOCCOCCO2)CC1` from this test.
Result: No

Task: I'd appreciate the recorded outcome for `S=c1nc[nH]c2nc[nH]c12` from this test.
Result: No

Task: I'd appreciate the recorded outcome for `Nc1cc2nc3ccccc3nc2cc1O` from this test.
Result: Yes

Task: I'd appreciate the recorded outcome for `Cc1ccc2nsc(NC(=O)C(Cl)(Cl)Cl)c2c1` from this test.
Result: No

Task: I'd appreciate the recorded outcome for `O=C(Nc1snc2ccccc12)c1ccccc1` from this test.
Result: No

Task: I'd appreciate the recorded outcome for `CN(C)CCNC(=O)c1cccc2c1ncc1ccccc12` from this test.
Result: Yes

---

- Test system: CCRIS mutagenicity, Ames/micronucleus/aberration tests
- test-summary: CCRIS mutagenicity studies
- details: Test System: AMES SALMONELLA TYPHIMURIUM; Strain/Indicator: TA100; Metabolic Activation: NONE; Method: PREINCUBATION
The source made the active and inactive calls. How the calls were made is not given here.
Respond only with the outcome that fits, drawn from T (active), F (inactive)

{"columns": ["molecule", "group-label"],
 "data": [
  ["O=C(O)c1cc(Cl)cc(Cl)c1", "F"],
  ["OCCN1CCNCC1", "F"],
  ["[O]=[Ce]=[O]", "F"],
  ["O=C1NC(=O)C(c2ccccc2)(c2ccccc2)N1", "F"],
  ["COC(=O)c1ccccc1O", "F"]
]}

Task: I'd appreciate the recorded outcome for `ClCBr` from this test.
Result: T

Task: I'd appreciate the recorded outcome for `CCCCN(CC)CC` from this test.
Result: F

All values here come from PubChem BioAssay AID1259407.
